target: Fibroblast growth factor receptor 2 (Homo sapiens) (UniProt P21802); settings: Compound concentration 20.0 uM
Sequence (P21802 22-821 limits assumed): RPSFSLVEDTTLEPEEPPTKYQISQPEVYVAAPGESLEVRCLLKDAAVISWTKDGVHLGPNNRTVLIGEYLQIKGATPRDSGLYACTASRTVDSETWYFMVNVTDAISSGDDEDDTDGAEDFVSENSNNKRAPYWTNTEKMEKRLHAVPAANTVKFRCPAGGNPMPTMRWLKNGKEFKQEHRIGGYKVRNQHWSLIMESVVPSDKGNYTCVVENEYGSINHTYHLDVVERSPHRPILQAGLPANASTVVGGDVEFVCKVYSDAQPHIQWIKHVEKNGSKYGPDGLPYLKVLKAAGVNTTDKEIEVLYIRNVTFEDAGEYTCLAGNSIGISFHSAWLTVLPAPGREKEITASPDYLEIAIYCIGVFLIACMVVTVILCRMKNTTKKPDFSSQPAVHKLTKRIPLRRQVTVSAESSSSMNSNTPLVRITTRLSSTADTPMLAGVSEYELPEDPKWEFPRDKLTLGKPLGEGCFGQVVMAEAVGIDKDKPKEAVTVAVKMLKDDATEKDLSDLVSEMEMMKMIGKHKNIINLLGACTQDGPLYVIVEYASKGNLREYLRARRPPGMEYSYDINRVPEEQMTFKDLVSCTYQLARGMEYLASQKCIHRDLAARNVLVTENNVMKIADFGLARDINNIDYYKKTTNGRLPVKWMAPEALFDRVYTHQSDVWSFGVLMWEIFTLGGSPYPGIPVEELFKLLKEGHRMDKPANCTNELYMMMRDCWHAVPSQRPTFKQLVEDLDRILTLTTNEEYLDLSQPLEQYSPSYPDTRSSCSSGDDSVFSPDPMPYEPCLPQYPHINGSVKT
Description: Thermal Shift Assay. Domain: start/stop: T457-E768
MEASURE: ΔTm

| RECORD SMILES | ΔTm |
| --- | --- |
| CC(C)N(C[C@H]1O[C@@H](n2cnc3c(N)ncnc32)[C@H](O)[C@@H]1O)[C@H]1C[C@@H](CCc2nc3cc(C(C)(C)C)ccc3[nH]2)C1 | 0.82 °C |
| NC(=O)c1ccc(Oc2ccc(C(N)=O)cc2)cc1 | 0.24 °C |
| Cc1cc(C)nc(SCC(=O)Nc2ncc(Cc3cccc(OCc4cn(Cc5ccccc5)nn4)c3)s2)n1 | -10.7 °C |

Query: Field request: ΔTm | item: `CNc1nccc(CN(CC2CCNCC2)S(=O)(=O)c2ccc(S(=O)(=O)N(Cc3ccc(Cl)cc3)C3CCCC3)cc2)n1`
Result: -0.24 °C

Query: Field request: ΔTm | item: `CC(=O)Nc1ccc(-c2cc(-c3ccccc3)nc3cc(C(=O)NCCCn4ccnc4)nn23)cc1`
Result: 0.21 °C
